- TGT: BRM (Homo sapiens)
- Construct: In-Cell Western Screen of BRM Degradation in SW1573 Cells; endogenous in cells; host or cells: SW1573
- Sequence (P51531 whole entry): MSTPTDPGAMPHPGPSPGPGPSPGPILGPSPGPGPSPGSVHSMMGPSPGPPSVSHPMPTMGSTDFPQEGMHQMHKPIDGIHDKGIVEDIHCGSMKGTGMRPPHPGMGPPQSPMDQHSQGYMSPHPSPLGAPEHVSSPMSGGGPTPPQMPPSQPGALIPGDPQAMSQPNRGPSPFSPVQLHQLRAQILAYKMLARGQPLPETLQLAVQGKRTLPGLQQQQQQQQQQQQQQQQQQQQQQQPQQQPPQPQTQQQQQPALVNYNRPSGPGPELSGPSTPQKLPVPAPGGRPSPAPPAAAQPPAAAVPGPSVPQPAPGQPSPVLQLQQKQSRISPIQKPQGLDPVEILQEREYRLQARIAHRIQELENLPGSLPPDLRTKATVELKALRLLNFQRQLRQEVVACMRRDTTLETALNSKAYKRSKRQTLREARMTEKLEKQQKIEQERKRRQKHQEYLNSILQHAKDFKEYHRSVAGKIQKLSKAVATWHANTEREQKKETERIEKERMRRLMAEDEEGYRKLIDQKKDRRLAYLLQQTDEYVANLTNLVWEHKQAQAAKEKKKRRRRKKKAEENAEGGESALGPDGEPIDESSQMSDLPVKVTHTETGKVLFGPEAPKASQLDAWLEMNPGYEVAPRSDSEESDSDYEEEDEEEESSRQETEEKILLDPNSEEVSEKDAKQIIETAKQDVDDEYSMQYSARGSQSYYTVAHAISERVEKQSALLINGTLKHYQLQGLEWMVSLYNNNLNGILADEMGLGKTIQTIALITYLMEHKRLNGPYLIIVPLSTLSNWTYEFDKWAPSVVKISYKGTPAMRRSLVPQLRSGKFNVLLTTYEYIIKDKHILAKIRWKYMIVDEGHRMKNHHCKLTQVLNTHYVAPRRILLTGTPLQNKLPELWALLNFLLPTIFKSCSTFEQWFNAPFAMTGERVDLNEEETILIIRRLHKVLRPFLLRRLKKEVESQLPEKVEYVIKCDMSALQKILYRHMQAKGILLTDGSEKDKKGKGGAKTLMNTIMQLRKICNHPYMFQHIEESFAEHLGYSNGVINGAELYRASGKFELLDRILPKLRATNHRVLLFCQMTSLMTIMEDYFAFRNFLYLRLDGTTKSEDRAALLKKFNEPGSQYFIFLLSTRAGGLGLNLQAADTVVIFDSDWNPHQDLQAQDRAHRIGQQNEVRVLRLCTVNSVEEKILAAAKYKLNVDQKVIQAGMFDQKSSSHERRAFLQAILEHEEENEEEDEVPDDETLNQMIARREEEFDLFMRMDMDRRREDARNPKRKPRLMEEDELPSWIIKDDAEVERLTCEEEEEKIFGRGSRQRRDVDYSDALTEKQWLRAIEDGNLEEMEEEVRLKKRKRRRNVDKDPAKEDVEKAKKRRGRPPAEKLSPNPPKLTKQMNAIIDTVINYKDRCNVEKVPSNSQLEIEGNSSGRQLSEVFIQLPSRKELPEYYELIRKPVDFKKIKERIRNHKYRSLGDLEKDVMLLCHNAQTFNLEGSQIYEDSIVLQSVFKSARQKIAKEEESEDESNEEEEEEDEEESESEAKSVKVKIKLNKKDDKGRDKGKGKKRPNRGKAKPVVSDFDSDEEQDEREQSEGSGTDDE
- ASSAY_NAME: In-cell Western screen of BRM degradation in SW1573 cells (Dmax and DC50)
- Format: cell-based
- MEASUREMENT_PARAMETERS: degradation of BRM; read-out: BRM DC50
ENDPOINT_LABEL: DC50

Which DC50 is listed for Cc1nccn1-c1ccc([C@H](C)NC(=O)[C@@H]2C[C@@H](O)CN2C(=O)[C@@H](c2cc(N3CCN(CC4CCN(C[C@H]5C[C@H](Oc6cc(N7C8CCC7CN(c7cc(-c9ccccc9O)nnc7N)C8)ccn6)C5)CC4)CC3)no2)C(C)C)cc1 [compound 437] ?
< 2.5 nM

Same question, Cc1ncsc1-c1ccc([C@H](C)NC(=O)[C@@H]2C[C@@H](O)CN2C(=O)[C@@H](c2cc(N3CCC(CO[C@H]4C[C@H](Oc5cc(N6C7CCC6CN(c6cc(-c8ccccc8O)nnc6N)C7)ccn5)C4)CC3)no2)C(C)C)cc1 [compound 434] this time
< 2.5 nM

Same question, Cc1ncsc1-c1ccc([C@H](C)NC(=O)[C@@H]2C[C@@H](O)CN2C(=O)[C@@H](c2cc(OCCN3CCC(O[C@H]4C[C@H](Oc5cc(/C=C/c6cc(-c7ccccc7O)nnc6N)ccn5)C4)CC3)no2)C(C)C)cc1 [compound 428] this time
< 2.5 nM

Same question, Cc1ncsc1-c1ccc([C@H](C)NC(=O)[C@@H]2C[C@@H](O)CN2C(=O)[C@@H](c2cc(OCCN3CCC(O[C@H]4C[C@H](C#C[C@@H](C)n5cc(-c6cc(-c7ccccc7O)nnc6N)cn5)C4)CC3)no2)C(C)C)cc1 [compound 414] this time
< 2.5 nM

Same question, Cc1ncsc1-c1ccc([C@H](C)NC(=O)[C@@H]2C[C@@H](O)CN2C(=O)[C@H](c2cc(N3CCN(CC4CCN(C[C@H]5C[C@H](Oc6cc(N7C8CCC7CN(c7cc(-c9ccccc9O)nnc7N)C8)ccn6)C5)CC4)CC3)no2)C(C)C)cn1 [compound 426] this time
> 30 nM

Same question, Cc1ncsc1-c1ccc([C@@H](NC(=O)[C@@H]2C[C@@H](O)CN2C(=O)[C@H](c2cc(OCCN3CCC(O[C@H]4C[C@H](Oc5cc(N6C7CCC6CN(c6cc(-c8ccccc8O)nnc6N)C7)ccn5)C4)CC3)no2)C(C)C)C(=O)N(C)C2CCC2)cc1 [compound 423] this time
> 30 nM

Same question, Cc1ncsc1-c1ccc([C@H](C)NC(=O)[C@@H]2C[C@@H](O)CN2C(=O)[C@H](c2cc(N3CCC(CO[C@H]4C[C@H](Oc5cc(N6C7CCC6CN(c6cc(-c8ccccc8O)nnc6N)C7)ccn5)C4)CC3)no2)C(C)C)cc1 [compound 433] this time
2.5 to 10 nM

Same question, Cc1ncsc1-c1ccc([C@H](C)NC(=O)[C@@H]2C[C@@H](O)CN2C(=O)[C@@H](c2cc(OCCN3CCN(CCO[C@H]4C[C@H](Oc5cc(N6C7CCC6CN(c6cc(-c8ccccc8O)nnc6N)C7)ccn5)C4)CC3)no2)C(C)C)cc1 [compound 408] this time
< 2.5 nM

###

- TGT: BRM (Homo sapiens)
- Construct: In-Cell Western Screen of BRM Degradation in SW1573 Cells; endogenous in cells; host or cells: SW1573
- ASSAY_NAME: In-cell Western screen of BRM degradation in SW1573 cells (Dmax and DC50)
- Assay type: cell-based
- MEASUREMENT_PARAMETERS: BRM degradation, SW1573 cells; Table 2D; read-out: *DC50
Could you please report measured DC50 for the items listed next?

Notebook entry, BRM (Homo sapiens) assay: DC50 of Cc1ncsc1-c1cc(F)c([C@@H](C)NC(=O)[C@@H]2C[C@@H](O)CN2C(=O)[C@H](c2cc(OCCN3CCC(O[C@H]4C[C@H](Oc5cc(N6C7CCC6CN(c6cc(-c8ccccc8O)nnc6N)C7)ccn5)C4)CC3)no2)C(C)C)cn1 = ?
> 30 nM

Same question, Cc1ncsc1-c1ccc([C@H](C)NC(=O)[C@@H]2C[C@@H](O)CN2C(=O)[C@@H](c2cc(OCC[C@H]3CCN(C[C@H]4C[C@H](Oc5cc(N6C7CCC6CN(c6cc(-c8ccccc8O)nnc6N)C7)ccn5)C4)C[C@H]3C)no2)C(C)C)cc1 (racemic) this time
< 2.5 nM

Same question, Cc1ncsc1-c1ccc([C@H](C)NC(=O)[C@@H]2C[C@@H](O)CN2C(=O)[C@@H](c2cc(N3CCC(CN4CCC([C@H](C)n5cc(-c6cc(-c7ccccc7O)nnc6N)cn5)CC4)CC3)no2)C(C)C)cc1 (single isomer, unassigned) this time
< 2.5 nM

Same question, CNC(=O)CCC[C@H](NC(=O)[C@@H]1C[C@@H](O)CN1C(=O)[C@@H](c1cc(OCCN2CCC(O[C@H]3C[C@H](Oc4cc(N5C6CCC5CN(c5cc(-c7ccccc7O)nnc5N)C6)ccn4)C3)CC2)no1)C(C)C)c1ccc(-c2scnc2C)cc1 this time
< 2.5 nM

Same question, Cc1ncsc1-c1cnc([C@H](C)NC(=O)[C@@H]2C[C@@H](O)CN2C(=O)[C@@H](c2cc(N3CCC(CN4CCC(O[C@H]5C[C@H](Oc6cc(N7C8CCC7CN(c7cc(-c9ccccc9O)nnc7N)C8)ccn6)C5)CC4)CC3)no2)C(C)C)cn1 this time
< 2.5 nM

Same question, Cc1ncsc1-c1ccc([C@H](C)NC(=O)[C@@H]2C[C@@H](O)CN2C(=O)[C@@H](c2cc(OCC[C@@H]3CCN(C[C@H]4C[C@H](Oc5cc(N6C7CCC6CN(c6cc(-c8ccccc8O)nnc6N)C7)ccn5)C4)[C@@H](C)C3)no2)C(C)C)cc1 (racemic) this time
< 2.5 nM

Same question, Cc1ncsc1-c1ccc([C@H](C)NC(=O)[C@@H]2C[C@@H](O)CN2C(=O)[C@@H](c2cc(N3CCC(OC4CCN(CC5CC(CN6CCC([C@H](C)n7cc(-c8cc(-c9ccccc9O)nnc8N)cn7)CC6)C5)CC4)CC3)no2)C(C)C)cc1 (single isomer, unassigned) this time
< 2.5 nM

Same question, Cc1ncsc1-c1ccc([C@H](C)NC(=O)[C@@H]2C[C@@H](O)CN2C(=O)[C@@H](c2cc(OCC[C@@H]3CCN(C[C@H]4C[C@H](Oc5cc(N6C7CCC6CN(c6cc(-c8ccccc8O)nnc6N)C7)ccn5)C4)C[C@H]3C)no2)C(C)C)cc1 (racemic) this time
< 2.5 nM

Same question, Cc1ncsc1-c1ccc([C@H](C)NC(=O)[C@@H]2C[C@@H](O)CN2C(=O)[C@@H](c2cc(N3CCC(CN4CCC(O[C@H]5C[C@H](N6CCOC7(CCN(c8cc(-c9ccccc9O)nnc8N)CC7)C6)C5)CC4)CC3)no2)C(C)C)cc1 this time
< 2.5 nM

Same question, Cc1ncsc1-c1ccc([C@H](C)NC(=O)[C@@H]2C[C@@H](O)CN2C(=O)C(c2cc(N3CCC(CN4CCC(O[C@H]5C[C@H](CN6CCOC7(CCN(c8cc(-c9ccccc9O)nnc8N)CC7)C6)C5)CC4)CC3)no2)C(C)C)cc1 (stereo partly drawn) this time
< 2.5 nM

Same question, COc1nc(-c2scnc2C)c(F)cc1[C@@H](C)NC(=O)[C@@H]1C[C@@H](O)CN1C(=O)[C@H](c1cc(OCCN2CCC(O[C@H]3C[C@H](Oc4cc(N5C6CCC5CN(c5cc(-c7ccccc7O)nnc5N)C6)ccn4)C3)CC2)no1)C(C)C this time
> 30 nM

Same question, Cc1ncsc1-c1ccc([C@H](C)NC(=O)[C@@H]2C[C@@H](O)CN2C(=O)[C@@H](c2cc(OCC[C@H]3CCN(C[C@H]4C[C@H](Oc5cc(N6C7CCC6CN(c6cc(-c8ccccc8O)nnc6N)C7)ccn5)C4)[C@@H](C)C3)no2)C(C)C)cc1 this time
< 2.5 nM

Same question, Cc1ncsc1-c1ccc([C@H](C)NC(=O)[C@@H]2C[C@@H](O)CN2C(=O)[C@@H](c2cc(OCC[C@H]3CCN(C[C@H]4C[C@H](Oc5cc(N6C7CCC6CN(c6cc(-c8ccccc8O)nnc6N)C7)ccn5)C4)[C@@H](C)[C@H]3C)no2)C(C)C)cc1 (single isomer, unassigned) this time
< 2.5 nM

Same question, Cc1cc([C@@H](C(=O)N2C[C@H](O)C[C@H]2C(=O)N[C@@H](C)c2ccc(-c3scnc3C)cc2)[C@H](C)COCCCn2cc(-c3cc(-c4ccccc4O)nnc3N)cn2)on1 this time
> 30 nM

Same question, Cc1ncsc1-c1ccc([C@H](C)NC(=O)[C@@H]2C[C@@H](O)CN2C(=O)[C@@H](c2cc(N3CCC(CN4CCC(COc5cc(N6C7CCC6CN(c6cc(-c8ccccc8O)nnc6N)C7)ccn5)CC4)CC3)no2)C(C)C)cc1 this time
< 2.5 nM

Values compiled from patent US12539292B2.
